Below are compounds with their Fusion % at CC50, NO TMPRSS2 as measured on SARS-CoV-2 S-mediated membrane fusion.

Worked examples follow.
* CC(C)OC(=O)CCC/C=C\C[C@@H]1[C@@H](CC[C@@H](O)CCc2ccccc2)[C@H](O)C[C@@H]1O [Latanoprost] | 70,98%
* CCOc1ccc(Cc2nccc3cc(OCC)c(OCC)cc23)cc1OCC [Ethaverine] | 125,39%

With SARS-CoV-2 S-mediated membrane fusion as the test system, provide measured Fusion % at CC50, NO TMPRSS2 for this compound: O=C(Nc1ccccc1)OCC(CN1CCCCC1)OC(=O)Nc1ccccc1 (stereo not drawn) [Diperodon]
123,98%

Give Fusion % at CC50, NO TMPRSS2 for COCCCOc1ccnc(C[S+]([O-])c2nc3ccccc3[nH]2)c1C (stereo not drawn) [Rabeprazol] tested on SARS-CoV-2 S-mediated membrane fusion.
179,16%

Provide measured Fusion % at CC50, NO TMPRSS2 on SARS-CoV-2 S-mediated membrane fusion for CCC(C)(C)C(=O)O[C@H]1C[C@@H](C)C=C2C=C[C@H](C)[C@H](CC[C@@H]3C[C@@H](O)CC(=O)O3)[C@H]21 [Simvastatin] please.
172,00%

Give measured Fusion % at CC50, NO TMPRSS2 for C#C[C@]1(O)CC[C@H]2[C@@H]3CCc4cc(O)ccc4[C@H]3CC[C@@]21C [Ethynylestradiol] (SARS-CoV-2 S-mediated membrane fusion).
162,00%
